- Measured on: T1, Human B7-H4-Fc (Human B7H4 ECD, Fc_6His) (human)
- T1 construct: also called FcHis6 tagged human B7-H4
- T1 sequence (Q7Z7D3 whole entry, looked up): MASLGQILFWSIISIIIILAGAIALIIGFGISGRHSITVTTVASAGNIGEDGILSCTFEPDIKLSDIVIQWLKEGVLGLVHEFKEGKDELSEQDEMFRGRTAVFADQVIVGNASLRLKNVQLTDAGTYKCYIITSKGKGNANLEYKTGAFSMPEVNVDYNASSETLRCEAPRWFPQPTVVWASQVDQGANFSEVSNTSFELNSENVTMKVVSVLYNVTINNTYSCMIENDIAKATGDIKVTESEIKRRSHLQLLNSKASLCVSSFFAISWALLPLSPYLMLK
- Test name: HTRF binding, murine IgG1
Endpoint name: Max
Numbers only.

Reference set, count: 4
>  <Binder>
ZY0EOB-F05 murine IgG1 (antibody, V domains shown) VH: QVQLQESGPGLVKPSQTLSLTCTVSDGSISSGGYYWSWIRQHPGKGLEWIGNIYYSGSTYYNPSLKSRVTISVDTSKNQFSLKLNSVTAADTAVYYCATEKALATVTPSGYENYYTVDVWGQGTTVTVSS VL: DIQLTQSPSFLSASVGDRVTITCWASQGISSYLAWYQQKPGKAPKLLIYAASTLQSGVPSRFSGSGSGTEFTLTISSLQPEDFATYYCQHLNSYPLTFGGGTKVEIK

>  <Reported value>
3020

$$$$
>  <Binder>
ZY0EO5-E07 murine IgG1 (antibody, V domains shown, also called ZY0E05-E07; E05-E07) VH: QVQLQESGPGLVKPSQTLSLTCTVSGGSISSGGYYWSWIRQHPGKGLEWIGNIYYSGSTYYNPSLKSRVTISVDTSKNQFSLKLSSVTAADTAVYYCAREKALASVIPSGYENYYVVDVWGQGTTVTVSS VL: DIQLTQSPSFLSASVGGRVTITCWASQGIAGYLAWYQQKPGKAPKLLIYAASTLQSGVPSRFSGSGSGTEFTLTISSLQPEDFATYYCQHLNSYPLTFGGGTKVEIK

>  <Reported value>
2150

$$$$
>  <Binder>
ZY0EPQ-E02 murine IgG1 (antibody, V domains shown) VH: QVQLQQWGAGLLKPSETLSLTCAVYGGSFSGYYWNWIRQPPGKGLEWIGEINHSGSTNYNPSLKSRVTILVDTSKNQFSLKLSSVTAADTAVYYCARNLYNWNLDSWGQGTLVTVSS VL: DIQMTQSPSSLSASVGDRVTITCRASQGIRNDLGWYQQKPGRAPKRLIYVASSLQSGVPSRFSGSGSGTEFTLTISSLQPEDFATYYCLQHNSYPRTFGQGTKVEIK

>  <Reported value>
2740

$$$$
>  <Binder>
ZY0EQD-E02 murine IgG1 (antibody, V domains shown) VH: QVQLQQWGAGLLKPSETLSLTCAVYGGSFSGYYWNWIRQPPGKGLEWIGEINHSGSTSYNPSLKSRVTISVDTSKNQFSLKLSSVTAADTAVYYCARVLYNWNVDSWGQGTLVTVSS VL: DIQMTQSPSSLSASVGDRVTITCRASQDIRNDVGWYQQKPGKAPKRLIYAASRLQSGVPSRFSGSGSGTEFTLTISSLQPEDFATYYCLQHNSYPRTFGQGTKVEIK

>  <Reported value>
3170

$$$$

Next binder, Max to be filled in.
Report Max for ZY0EP0-C07 murine IgG1 (antibody, V domains shown, also called ZY0EPO-C07) VH: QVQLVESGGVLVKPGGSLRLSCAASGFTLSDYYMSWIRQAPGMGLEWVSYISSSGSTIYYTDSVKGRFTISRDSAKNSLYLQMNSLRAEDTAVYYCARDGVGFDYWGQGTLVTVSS VL: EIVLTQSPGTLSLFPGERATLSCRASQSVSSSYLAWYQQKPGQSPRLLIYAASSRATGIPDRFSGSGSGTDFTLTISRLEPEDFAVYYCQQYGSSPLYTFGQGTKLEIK
1740

Data provenance is patent US20240239894A1.
